- EXPERIMENTAL_SYSTEM: EGFR L858R/C797S (Homo sapiens, UniProt P00533, C797S/L858R)
- Sequence (P00533 25-1210 C797S/L858R): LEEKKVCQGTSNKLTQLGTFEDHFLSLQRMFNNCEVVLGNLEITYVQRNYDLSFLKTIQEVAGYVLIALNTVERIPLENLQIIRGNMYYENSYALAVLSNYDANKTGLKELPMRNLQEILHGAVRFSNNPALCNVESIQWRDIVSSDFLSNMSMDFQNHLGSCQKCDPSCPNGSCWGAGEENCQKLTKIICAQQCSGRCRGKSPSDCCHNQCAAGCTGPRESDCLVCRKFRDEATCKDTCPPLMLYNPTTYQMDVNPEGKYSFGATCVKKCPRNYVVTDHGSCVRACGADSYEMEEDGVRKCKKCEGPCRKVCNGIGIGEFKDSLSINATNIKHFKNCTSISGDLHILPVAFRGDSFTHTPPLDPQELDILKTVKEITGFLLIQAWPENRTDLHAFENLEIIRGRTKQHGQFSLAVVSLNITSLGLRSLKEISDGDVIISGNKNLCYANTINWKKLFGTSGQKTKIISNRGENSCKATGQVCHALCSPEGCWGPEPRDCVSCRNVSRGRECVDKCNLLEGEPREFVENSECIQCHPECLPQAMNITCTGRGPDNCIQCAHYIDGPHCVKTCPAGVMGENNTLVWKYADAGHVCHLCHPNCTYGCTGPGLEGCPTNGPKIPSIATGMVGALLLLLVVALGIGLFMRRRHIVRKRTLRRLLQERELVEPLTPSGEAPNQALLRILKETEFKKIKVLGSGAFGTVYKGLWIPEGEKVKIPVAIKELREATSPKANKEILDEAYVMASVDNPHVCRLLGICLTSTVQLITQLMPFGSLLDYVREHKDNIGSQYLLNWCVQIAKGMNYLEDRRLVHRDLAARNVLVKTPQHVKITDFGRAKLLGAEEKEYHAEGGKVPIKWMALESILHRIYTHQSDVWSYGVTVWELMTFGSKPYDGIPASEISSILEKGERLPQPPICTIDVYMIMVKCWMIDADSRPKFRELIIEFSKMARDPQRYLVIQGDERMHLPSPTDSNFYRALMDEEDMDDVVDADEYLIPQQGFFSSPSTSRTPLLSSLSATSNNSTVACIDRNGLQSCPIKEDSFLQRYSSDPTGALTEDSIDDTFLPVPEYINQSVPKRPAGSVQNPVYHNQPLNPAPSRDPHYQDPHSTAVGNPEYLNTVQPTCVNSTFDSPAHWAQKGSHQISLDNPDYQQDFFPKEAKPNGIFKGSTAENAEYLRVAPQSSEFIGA
- MEASUREMENT_DESCRIPTION: Biochemical EGFR kinase inhibition assay (Lance Ultra TR-FRET), double mutant L858R/C797S
- CONDITION_DETAILS: ATP at Km; read-out: IC50 L858R/C797S (nM), Km ATP
MEASUREMENT_NAME: IC50 (nM)

[A] Cc1cnc(C#Cc2cnc(Nc3ccnc(-c4cnn(S(=O)(=O)C5CC5)c4)n3)cc2N[C@@H]2CCC[C@H](O)C2)cn1 [Example 170]
[B] Cn1cc(C#Cc2cnc(Nc3ccnc(-c4cnn(S(=O)(=O)C5CC5)c4)n3)cc2N2CCC3(CCNC3)CC2)cn1 [Example 156]
[C] CC1(O)CCC(Nc2cc(Nc3ccnc(-c4cnn(S(=O)(=O)C5CC5)c4)n3)ncc2C#Cc2cnn(C3CC3(F)F)c2)CC1 (stereo not shown) [Example 326]
QUERY: // sort entries: IC50, high to low Show the ranking through the labels, in the order asked for.
RESULT: A, C, B

[A] O=S(=O)(C1CC1)n1cc(-c2nccc(Nc3cc(N[C@H]4CC[C@@H](O)CC4)c(C#CC4(O)CCCCC4)cn3)n2)cn1 [Example 174]
[B] O=S(=O)(C1CC1)n1cc(-c2nccc(Nc3cc(N[C@H]4CC[C@@H](O)CC4)c(C#Cc4ccc(CN5CCOCC5)s4)cn3)n2)cn1 [Example 190]
[C] CN(C)S(=O)(=O)n1cc(-c2nccc(Nc3cc(N4CCC(C)(CO)CC4)c(C#Cc4cnn(C(F)(F)F)c4)cn3)n2)cn1 [Example 273]
[D] CN(C)C[C@H]1CC[C@@H](Nc2cc(Nc3ccnc(-c4cnn(S(=O)(=O)C5CC5)c4)n3)ncc2C#Cc2cnn(C)c2)CC1 [Example 312]
QUERY: Output the entries ranked by IC50 from maximum down to minimum. Note for the reader: the ranking is given by listing the labels in the order requested.
RESULT: A, C, B, D

###

- EXPERIMENTAL_SYSTEM: EGFR Del19/T790M/C797S (Homo sapiens, UniProt P00533, C797S/DEL746-750/T790M)
- Sequence (P00533 with tags, fused parts or gaps DEL746-750/T790M/C797S): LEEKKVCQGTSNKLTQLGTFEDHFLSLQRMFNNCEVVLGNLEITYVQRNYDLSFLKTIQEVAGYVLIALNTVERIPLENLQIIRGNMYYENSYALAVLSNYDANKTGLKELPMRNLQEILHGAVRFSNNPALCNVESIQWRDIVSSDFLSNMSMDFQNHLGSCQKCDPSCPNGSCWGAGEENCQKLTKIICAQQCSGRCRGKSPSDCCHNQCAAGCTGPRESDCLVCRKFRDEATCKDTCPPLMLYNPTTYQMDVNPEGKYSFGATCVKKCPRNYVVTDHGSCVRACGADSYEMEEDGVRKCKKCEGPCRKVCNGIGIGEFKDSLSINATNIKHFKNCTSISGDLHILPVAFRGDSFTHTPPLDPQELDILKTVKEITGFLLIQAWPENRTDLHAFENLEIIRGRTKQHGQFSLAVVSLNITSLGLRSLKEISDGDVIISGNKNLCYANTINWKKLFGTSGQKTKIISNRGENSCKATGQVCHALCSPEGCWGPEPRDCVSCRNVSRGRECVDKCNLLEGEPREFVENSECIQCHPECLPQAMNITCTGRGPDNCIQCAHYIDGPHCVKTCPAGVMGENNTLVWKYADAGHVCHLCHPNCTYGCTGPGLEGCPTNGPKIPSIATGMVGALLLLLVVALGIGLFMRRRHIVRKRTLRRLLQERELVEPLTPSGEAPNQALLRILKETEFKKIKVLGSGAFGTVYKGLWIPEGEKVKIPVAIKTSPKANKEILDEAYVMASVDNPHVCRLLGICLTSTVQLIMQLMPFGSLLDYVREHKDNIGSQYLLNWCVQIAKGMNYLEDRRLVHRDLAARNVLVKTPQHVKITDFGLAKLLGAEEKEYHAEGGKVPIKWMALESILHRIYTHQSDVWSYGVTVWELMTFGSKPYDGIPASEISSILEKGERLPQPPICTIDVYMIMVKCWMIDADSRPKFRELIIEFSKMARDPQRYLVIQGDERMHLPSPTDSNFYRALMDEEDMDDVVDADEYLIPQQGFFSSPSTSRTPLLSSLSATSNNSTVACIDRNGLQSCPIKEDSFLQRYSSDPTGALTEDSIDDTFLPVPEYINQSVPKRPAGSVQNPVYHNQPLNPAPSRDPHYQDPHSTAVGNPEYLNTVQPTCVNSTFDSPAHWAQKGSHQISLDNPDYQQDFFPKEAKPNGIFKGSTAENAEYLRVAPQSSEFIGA
- MEASUREMENT_DESCRIPTION: Biochemical EGFR kinase inhibition assay (Lance Ultra TR-FRET), triple mutant del19/T790M/C797S
- CONDITION_DETAILS: IC50 Del19/T790M/C797S (nM), 100 μM ATP
MEASUREMENT_NAME: IC50 (nM)

Would you please look over these solved cases?
| COMPOUND | MEASUREMENT_NAME | VALUE_MEASURED |
| --- | --- | --- |
| CC1(O)CCN(c2cc(Nc3ccnc(-c4cnn(S(=O)(=O)C5CC5)c4)n3)ncc2C#CC2CCN(C(=O)C(F)(F)F)C2)CC1 (stereo not drawn) | IC50 | 0.2 |
| CC1(CO)CCN(c2cc(Nc3ccnc(-c4cnn(S(=O)(=O)C5CC5)c4)n3)ncc2C#Cc2cnn(C3CC3)c2)CC1 | IC50 | 2.8 |
| CC1(CO)CCN(c2cc(Nc3ccnc(-c4cnn(S(=O)(=O)C5CC5)c4)n3)ncc2C#CCCO)CC1 | IC50 | 0.2 |
| O=S(=O)(C1CC1)n1cc(-c2nccc(Nc3cc(N4CCC(F)(CO)CC4)c(C#Cc4cnn(C(F)(F)F)c4)cn3)n2)cn1 | IC50 | 0.4 |

[A] CC1(CO)CCN(c2cc(Nc3ccnc(-c4cnn(S(=O)(=O)C5CC5)c4)n3)ncc2C#CC2CC(C(C)(C)O)C2)CC1 (stereo not drawn)
[B] CN(C)CCC1CCN(c2cc(Nc3ccnc(-c4cnn(S(=O)(=O)C5CC5)c4)n3)ncc2C#Cc2cnn(CC(F)(F)F)c2)CC1
QUERY: Of the two listed items, which has the higher IC50? First: A Second: B Record your answer as the label of the chosen record.
RESULT: B
